Each recorded value in this set is attributed to paper PMC11931565.

# targetDesc: native CaCYP51 (Candida albicans)
# Construct: made in house; host or cells: E. coli
# Sequence (P10613 whole entry): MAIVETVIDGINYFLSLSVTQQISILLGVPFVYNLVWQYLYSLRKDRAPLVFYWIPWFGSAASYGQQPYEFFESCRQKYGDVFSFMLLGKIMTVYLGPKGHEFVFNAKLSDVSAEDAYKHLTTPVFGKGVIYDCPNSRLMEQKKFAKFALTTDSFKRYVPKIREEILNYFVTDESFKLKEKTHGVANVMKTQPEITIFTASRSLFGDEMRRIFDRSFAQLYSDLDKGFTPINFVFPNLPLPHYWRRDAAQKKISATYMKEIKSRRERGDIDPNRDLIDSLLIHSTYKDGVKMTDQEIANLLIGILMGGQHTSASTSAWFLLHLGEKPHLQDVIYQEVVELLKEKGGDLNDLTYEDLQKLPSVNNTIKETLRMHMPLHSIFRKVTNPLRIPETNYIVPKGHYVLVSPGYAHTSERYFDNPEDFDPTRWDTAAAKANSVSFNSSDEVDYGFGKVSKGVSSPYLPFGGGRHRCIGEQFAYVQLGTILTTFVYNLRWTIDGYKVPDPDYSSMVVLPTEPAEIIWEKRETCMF
# assayProtocol: CaCYP51 type II ligand binding affinity (Kd) from difference spectra saturation curves
assayMetric: Kd (nM)

> print(dat)
                                   compound  measuredresult
1  OC(Cn1cncn1)(Cn1cncn1)c1ccc(F)cc1F [FLZ, Fluconazole, reference compound]              31

====

Recorded MIC, one value per entry.
# Tested on: C. albicans wild-type clinical isolate CA14
# assayProtocol: C. albicans susceptibility testing (CLSI broth microdilution MIC), strain CA14
# Type: cell-based, Candida albicans
# conditionDetails: Candida albicans, RPMI 1640, 37 °C, read at 48 h
assayMetric: MIC

> print(dat)
                                    molecule  measuredresult
 1  O=C(NCC(O)(Cn1cncn1)c1ccc(Cl)cc1Cl)c1ccc(NC(=S)Nc2ccc(Cl)cc2)cc1 (stereo not shown) [11b]      0.25 µg/mL
 2  O=C(NCC(O)(Cn1cncn1)c1ccc(Cl)cc1)c1csc(Cl)n1 (stereo not shown)      0.25 µg/mL
 3  O=C(Nc1ccc(Cl)cc1)Nc1ccc(C(=O)NCC(O)(Cn2cncn2)c2ccc(Cl)cc2)cc1 (stereo not shown) [12a]         1 µg/mL
 4  O=C(NCC(O)(Cn1cncn1)c1ccc(Cl)cc1Cl)c1ccc(NS(=O)(=O)c2ccc(Cl)cc2)cc1 (stereo not shown) [14b]      0.25 µg/mL
 5  OC(Cn1cncn1)(Cn1cncn1)c1ccc(F)cc1F [FLZ, Fluconazole, reference compound]     0.125 µg/mL
 6  O=C(Nc1ccc(Cl)cc1)Nc1ccc(C(=O)NCC(O)(Cn2cncn2)c2ccc(Cl)cc2Cl)cc1 (stereo not shown) [12b]     0.125 µg/mL
 7  O=C(NCC(O)(Cn1cncn1)c1ccc(Cl)cc1Cl)c1csc(Cl)n1 (stereo not shown)    < 0.03 µg/mL
 8  CC(=O)c1cccc(C(=O)NCC(O)(Cn2cncn2)c2ccc(Cl)cc2)c1 (stereo not shown)      0.25 µg/mL
 9  O=C(NCC(O)(Cn1cncn1)c1ccc(Cl)cc1Cl)c1ccc(NC(=O)c2ccc(Cl)cc2)cc1 (stereo not shown) [13b]    < 0.03 µg/mL
10  O=C(NCC(O)(Cn1cncn1)c1ccc(Cl)cc1)c1ccc(NC(=S)Nc2ccc(Cl)cc2)cc1 (stereo not shown) [11a]         4 µg/mL
11  O=C(NCC(O)(Cn1cncn1)c1ccc(Cl)cc1)c1ccc(NC(=O)c2ccc(Cl)cc2)cc1 (stereo not shown) [13a]    < 0.03 µg/mL
12  O=C(NCC(O)(Cn1cncn1)c1ccc(Cl)cc1)c1ccc(NS(=O)(=O)c2ccc(Cl)cc2)cc1 (stereo not shown) [14a]         1 µg/mL
13  CC(=O)c1cccc(C(=O)NCC(O)(Cn2cncn2)c2ccc(Cl)cc2Cl)c1 (stereo not shown)    < 0.03 µg/mL

====

# Tested on: S. cerevisiae Y2513 overexpressed ScCYP51 Y140H
# assayProtocol: MIC, recombinant S. cerevisiae strain Y2513 Y140H
# Type: cell-based
# conditionDetails: Saccharomyces cerevisiae, pH 6.8, read-out: MIC Y2513 Y140H
Numbered stars: 1 amine (or outer) side, 2 acyl side, 3 side chain; on linkers, the order of the positions; unused ones are H or OH. Bridge positions count the residues as written; N and C are the ends. Square brackets hold non-standard residues; d marks the D form. Peptide text beside a SMILES is read from it. * marks the point of attachment. hTyr(3S-OH,4S-OH,3'-OSO3H) = N[C@H](C(=O)O)[C@H](O)[C@@H](O)c1ccc(O)c(OS(=O)(=O)O)c1; Orn(4R-OH,5R-OH) = O=C([C@H](C[C@@H](O)[C@@H](O)N[*:3])N[*:1])[*:2]; Pro(3S-OH,4S-Me) = C[C@H]1CN[C@H](C(=O)O)[C@H]1O; X1 = CCCCCOc1ccc(-c2cc(-c3ccc(C(=O)*)cc3)no2)cc1; Gln(3R-OH) = NC(=O)C[C@@H](O)[C@H](N)C(=O)O; Hyp = O=C(O)[C@@H]1C[C@@H](O)CN1
assayMetric: MIC (µg/mL)

compound	targetDesc	assayMetric	measurementQualifier	measuredResult
CCCCCOc1ccc(-c2cc(-c3ccc(C(=O)N[C@H]4C[C@@H](O)[C@@H](O)NC(=O)[C@@H]5[C@@H](O)[C@@H](C)CN5C(=O)[C@H]([C@H](O)CC(N)=O)NC(=O)[C@H]([C@H](O)[C@@H](O)c5ccc(O)c(OS(=O)(=O)O)c5)NC(=O)[C@@H]5C[C@@H](O)CN5C(=O)[C@H]([C@@H](C)O)NC4=O)cc3)no2)cc1 [Micafungin, reference compound] (X1-[Orn(4R-OH,5R-OH)]T[Hyp][hTyr(3S-OH,4S-OH,3'-OSO3H)][Gln(3R-OH)][Pro(3S-OH,4S-Me)]; lactam 1-C)	S. cerevisiae Y2513 overexpressed ScCYP51 Y140H	MIC	=	0.125
O=C(NCC(O)(Cn1cncn1)c1ccc(Cl)cc1)c1ccc(NC(=O)c2ccc(Cl)cc2)cc1 (stereo not drawn) [13a]	S. cerevisiae Y2513 overexpressed ScCYP51 Y140H	MIC	=	1
O=C(NCC(O)(Cn1cncn1)c1ccc(Cl)cc1Cl)c1ccc(NC(=O)c2ccc(Cl)cc2)cc1 (stereo not drawn) [13b]	S. cerevisiae Y2513 overexpressed ScCYP51 Y140H	MIC	=	0.125
CC[C@@H]([C@H](C)O)n1ncn(-c2ccc(N3CCN(c4ccc(OC[C@@H]5CO[C@@](Cn6cncn6)(c6ccc(F)cc6F)C5)cc4)CC3)cc2)c1=O [PCZ, posaconazole, reference compound]	S. cerevisiae Y2513 overexpressed ScCYP51 Y140H	MIC	<	0.03
OC(Cn1cncn1)(Cn1cncn1)c1ccc(F)cc1F [FLZ, Fluconazole, reference compound]	S. cerevisiae Y2513 overexpressed ScCYP51 Y140H	MIC	=	32
